Field: melting point. Provide a value for each of the compounds that follow.

Challenge: I am curious: what melting point value has been reported for `CN1Cc2c(C#C[Si](C)(C)C)ncn2-c2ccc(F)cc2C1=O` ?
Response given: 184 to 185 °C

Challenge: I am curious: what melting point value has been reported for `COc1ccc2c(c1)CNN=C2Cc1c(Cl)cncc1Cl` ?
Response given: 181 to 183 °C

Challenge: I am curious: what melting point value has been reported for CCCCCN1C(=O)C(CO)(c2cc3c(cc2O)OCO3)c2ccccc21 (centres undefined) ?
Response given: 125 to 127 °C

Challenge: I am curious: what melting point value has been reported for `CC1(C)OC(=O)N[C@@H]1c1ccccc1` ?
Response given: 149 °C

* * *

Field: melting point. Provide a value for each of the compounds that follow.

Challenge: I am curious: what melting point value has been reported for `COc1cc2[nH]c3c(OC)c(OC)ccc3c2cc1OC` ?
Response given: 170 to 171 °C

Challenge: I am curious: what melting point value has been reported for `O=c1[nH]nc(Cc2ccc([N+](=O)[O-])cc2)o1` ?
Response given: 170 to 171 °C

Challenge: I am curious: what melting point value has been reported for `NC(=O)CNC(=O)c1ccc(-c2cccc3cc(Cc4cccc(C(F)(F)F)c4)sc23)nc1` ?
Response given: 191 to 192 °C

Challenge: I am curious: what melting point value has been reported for `CCCc1nc2c(N)nc3ccccc3c2n1CCCC(N)=O` ?
Response given: 249 to 251 °C

Challenge: I am curious: what melting point value has been reported for `Cc1ccccc1C(=O)C=CC(=O)O` ?
Response given: 82 to 83 °C

Challenge: I am curious: what melting point value has been reported for `N#Cc1c(CBr)c(C#N)c(CBr)c(C#N)c1CBr` ?
Response given: 120 °C

Challenge: I am curious: what melting point value has been reported for `CC(C)S(=O)(=O)c1ccc(Oc2ccc([N+](=O)[O-])c(NCCC#N)c2)c(Cl)c1` ?
Response given: 140 °C

Challenge: I am curious: what melting point value has been reported for `O=C(N[C@@H](Cc1ccc(Cl)cc1)C(=O)N1CCC(O)CC1)c1cc2cc(Cl)ccc2[nH]1` ?
Response given: 227 to 229 °C

Challenge: I am curious: what melting point value has been reported for `CC1(C)CON(Cc2ccc(NC(=O)Cc3ccccc3C(=O)O)cc2)C1=O` ?
Response given: 164 to 166 °C

Challenge: I am curious: what melting point value has been reported for `CC(=O)Nc1nc(CN2CCN(C(c3ccccc3)c3ccccc3)CC2)cs1` ?
Response given: 178 to 179 °C

Challenge: I am curious: what melting point value has been reported for `C=C(C)[C@@H]1CC[C@](C)(O)[C@@H](n2ccnc2)C1` ?
Response given: 126 to 128 °C

Challenge: I am curious: what melting point value has been reported for `FC(F)(F)c1cc(NC(=S)N[C@@H]2CCCC[C@H]2NCc2ccccc2)cc(C(F)(F)F)c1` ?
Response given: 140 to 141 °C

Challenge: I am curious: what melting point value has been reported for `Cc1ccc(C=CC(=O)NN2CC(=O)NC2=O)cc1Cl` ?
Response given: 271 to 273 °C

Challenge: I am curious: what melting point value has been reported for `O=C(/C=C/c1ccc(F)cc1)c1cnc2sc3c(n12)CCCCC3` ?
Response given: 187 to 188 °C

Challenge: I am curious: what melting point value has been reported for CSc1c(O[C@@H]2CCC[C@H](N)C2)ccc2[nH]ncc12 (relative stereo) ?
Response given: 112 to 113 °C

Challenge: I am curious: what melting point value has been reported for CCCCCCCC(=O)C(CC(=O)OCC)C(=O)OCC (centres undefined) ?
Response given: 138 to 142 °C

Challenge: I am curious: what melting point value has been reported for `CCOP(=O)(Cc1ccc2nc(-c3ccc(OC)cc3)oc2c1)OCC` ?
Response given: 86 to 88 °C

Challenge: I am curious: what melting point value has been reported for `Cn1cc(-c2ccccc2)c(=O)c(-c2ccccc2Cl)c1` ?
Response given: 145 °C

Challenge: I am curious: what melting point value has been reported for `CCC(CC)c1ccc(-c2ccco2)c2nc(Oc3ccc(Cl)cc3Br)n(C)c12` ?
Response given: 159 to 162 °C

Challenge: I am curious: what melting point value has been reported for CCOC(=O)CN1CSCCC(N2C(=O)c3ccccc3C2=O)C1=O (centres undefined) ?
Response given: 192 to 194 °C

Challenge: I am curious: what melting point value has been reported for CCC1CC(=O)N(Cc2cccc(NC(=O)C(F)(F)C(F)(F)F)c2)N=C1c1ccc(OC)c(OC2CCCC2)c1 (centres undefined) ?
Response given: 126 °C

Challenge: I am curious: what melting point value has been reported for `CN(C(=O)Cl)c1ccc(C(O)(C(F)(F)F)C(F)(F)F)cc1` ?
Response given: 152 to 154 °C

Challenge: I am curious: what melting point value has been reported for `O=C(NCCCCn1ccnc1)Nc1ccccc1Cl` ?
Response given: 87 to 88 °C

Challenge: I am curious: what melting point value has been reported for `CC(=Cc1ccccc1)c1ccc2c(c1)SCCC2(C)C` ?
Response given: 67 to 69 °C

Challenge: I am curious: what melting point value has been reported for `CC(=O)NC[C@H]1CN(c2ccc(C(=O)c3cnc4ccc(F)cn34)cc2)C(=O)O1` ?
Response given: 224 to 226 °C

Challenge: I am curious: what melting point value has been reported for `COc1ccc2c3c(c(=O)oc2c1)CN(Cc1cccc(Cl)c1)CC3` ?
Response given: 112 to 115 °C

Challenge: I am curious: what melting point value has been reported for `COC(=O)c1cccc(OC)c1I` ?
Response given: 58 to 61 °C

Challenge: I am curious: what melting point value has been reported for `N#Cc1cc(-c2c(C(N)=O)ccn2-c2ccc(F)cc2)ccc1OCC(F)(F)F` ?
Response given: 227 to 228 °C

Challenge: I am curious: what melting point value has been reported for `O=[N+]([O-])c1cc2c(Cl)ncnc2s1` ?
Response given: 112 °C

Challenge: I am curious: what melting point value has been reported for `CC1(C)CCC(C)(C)c2cc(-c3cc(-c4ccc(C(=O)O)cc4)ccc3OCCCNC3CC3)ccc21` ?
Response given: 192 °C

Challenge: I am curious: what melting point value has been reported for `COc1nnc2n1C=Cc1cc(Cl)ccc1C2` ?
Response given: 177 to 178 °C

Challenge: I am curious: what melting point value has been reported for `CCCCc1nn(-c2cc(NC(=O)CC)ccc2Cl)c(=O)n1Cc1ccc(-c2ccccc2S(=O)(=O)NC(=O)c2occ(Cl)c2Cl)cc1` ?
Response given: 223 to 226 °C

Challenge: I am curious: what melting point value has been reported for `CCCC(=O)c1ccc(N2CCOCC2)cc1` ?
Response given: 64.5 to 65.5 °C

Challenge: I am curious: what melting point value has been reported for CCCCC(C)(C)C(O)CCN1C(=O)NC(=O)C1CCCCCCC(=O)O (centres undefined) ?
Response given: 90 to 98 °C

Challenge: I am curious: what melting point value has been reported for `O=c1[nH]c2ccc(CCCCN3CCN(c4cccc5ccccc45)CC3)cc2o1` ?
Response given: 231 to 233 °C

Challenge: I am curious: what melting point value has been reported for `O=C(CNc1ccc2[nH]c(=O)oc2c1)N1CCC(Oc2ccccc2)CC1` ?
Response given: 220 to 223 °C

Challenge: I am curious: what melting point value has been reported for `O=Cc1nnc2n1-c1ccc(Cl)cc1C(c1ccccc1)=NC2` ?
Response given: 133 to 135 °C

Challenge: I am curious: what melting point value has been reported for `CCOc1ncc(C(C)=O)cc1-c1nc2c(CC)n(CC3CC3)nc2c(=O)[nH]1` ?
Response given: 200 to 201 °C

Challenge: I am curious: what melting point value has been reported for O=C1c2ccccc2C(=O)C2(CC3CCCC(C(F)(F)F)C3)OC12 (centres undefined) ?
Response given: 85 °C

Sourced from a melting point compilation (Tetko et al.; mined from patent text by program, amines drawn as free bases though some values may be those of a salt)
